system: RKO; experiment: Antiproliferative activity against human RKO cells assessed as reduction in cell viability incubated for 24 hrs; assay type: functional, cell-based
RESULT TYPE: IC50 (nM)

[
  {
    "STRUCTURE NOTATION": "CN(C)CCCN(CCCN(C)C)c1nc(-c2[nH]c3ccccc3c2C=O)nc2ccccc12",
    "MEASUREMENT UNITS": "nM",
    "OPERATOR SYMBOL": "=",
    "MEASURED": 1800
  },
  {
    "STRUCTURE NOTATION": "C=Cc1c(C)nc(-c2[nH]c3ccccc3c2C(C)=O)nc1NCCCN1CCCC1",
    "MEASUREMENT UNITS": "nM",
    "OPERATOR SYMBOL": ">",
    "MEASURED": 10000
  },
  {
    "STRUCTURE NOTATION": "CN(C)CCCNc1nc(-c2[nH]c3ccccc3c2C(=O)O)nc2ccccc12",
    "MEASUREMENT UNITS": "nM",
    "OPERATOR SYMBOL": "=",
    "MEASURED": 5300
  },
  {
    "STRUCTURE NOTATION": "CN(C)CCNc1nc(-c2[nH]c3ccc(Cl)cc3c2C=O)nc2ccccc12",
    "MEASUREMENT UNITS": "nM",
    "OPERATOR SYMBOL": "=",
    "MEASURED": 5300
  },
  {
    "STRUCTURE NOTATION": "Cc1ccc(CCNc2nc(-c3[nH]c4ccccc4c3C=O)nc3ccccc23)cc1",
    "MEASUREMENT UNITS": "nM",
    "OPERATOR SYMBOL": "=",
    "MEASURED": 1800
  },
  {
    "STRUCTURE NOTATION": "Cc1c(-c2nc(NCCN3CCCCC3)c3ccccc3n2)[nH]c2ccccc12",
    "MEASUREMENT UNITS": "nM",
    "OPERATOR SYMBOL": ">",
    "MEASURED": 10000
  },
  {
    "STRUCTURE NOTATION": "CC(=O)c1c(-c2nc(NCCN3CCCCC3)c3ccccc3n2)[nH]c2ccccc12",
    "MEASUREMENT UNITS": "nM",
    "OPERATOR SYMBOL": "=",
    "MEASURED": 9500
  },
  {
    "STRUCTURE NOTATION": "O=Cc1c(-c2nc(NCCN3CCCC3)c3ccccc3n2)[nH]c2ccc(Cl)cc12",
    "MEASUREMENT UNITS": "nM",
    "OPERATOR SYMBOL": "=",
    "MEASURED": 2500
  },
  {
    "STRUCTURE NOTATION": "CCN1CCC[C@H]1CNc1nc(-c2[nH]c3ccccc3c2C=O)nc2ccccc12",
    "MEASUREMENT UNITS": "nM",
    "OPERATOR SYMBOL": "=",
    "MEASURED": 900
  },
  {
    "STRUCTURE NOTATION": "CN(C)CCNc1nc(-c2[nH]c3ccc(F)cc3c2C=O)nc2ccccc12",
    "MEASUREMENT UNITS": "nM",
    "OPERATOR SYMBOL": "=",
    "MEASURED": 1700
  }
]
